tested on: 699152-130-R-J1-PDC complex spheroid growth; assay: Anticancer human tumor 699152-130-R-J1-PDC patient-derived pancreatic carcinoma cell line growth inhibition [AhR]; settings: second compound 0.316 µM; first compound 0.316 µM; hits give low values
QUANTITY KIND: viability, T/C (%)

molecule="CC(C)c1c(-c2ccccc2)nc2c(C#N)c[nH]n2c1=O + Cc1cncc(-c2nc(NCCc3c[nH]c4ccccc34)c3ncn(C(C)C)c3n2)c1" scale_unit=% measured_number=101
molecule="COc1cc(Nc2ncc3c(n2)-c2ccc(Cl)cc2C(c2c(F)cccc2OC)=NC3)ccc1C(=O)O + Cc1cncc(-c2nc(NCCc3c[nH]c4ccccc34)c3ncn(C(C)C)c3n2)c1" scale_unit=% measured_number=72.4
molecule="COc1cccc2c1C(=O)c1c(O)c3c(c(O)c1C2=O)CC(O)(C(=O)CO)CC3OC1CC(N)C(O)C(C)O1 (stereo not drawn) + CC(CO)NC(=O)c1cc(-c2ccc(Cl)cc2)nn(-c2cnn(C)c2)c1=O" scale_unit=% measured_number=56

* * *

Recorded viability, T/C values for a group of compounds are listed next.
system: 699152-130-R-J1-PDC complex spheroid growth; assay: Anticancer human tumor 699152-130-R-J1-PDC cell line growth inhibition [AhR]; details: second compound 0.1 µM; first compound 0.0316 µM; hits give low values;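 also: compound exposure lasted 7 days after spheroids had grown for 3 days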
QUANTITY KIND: viability, T/C (%)

compound="COc1ccc([C@@H](O)c2cc(-c3ncnc4cc(N5CCOCC5)ccc34)c(F)cc2Cl)nn1 + Cc1ccccc1N=Nc1ccc(NC(=O)c2ccnn2C)c(C)c1" measured_number=93.5
compound="CC1COCCN1c1cc(C2(S(C)(=N)=O)CC2)nc(-c2ccnc3[nH]ccc23)n1 (stereo unspecified) + CC(CO)NC(=O)c1cc(-c2ccc(Cl)cc2)nn(-c2cnn(C)c2)c1=O" measured_number=87.9
compound="COc1cccc2c1C(=O)c1c(O)c3c(c(O)c1C2=O)CC(O)(C(=O)CO)CC3OC1CC(N)C(O)C(C)O1 (stereo unspecified) + Cc1ccccc1N=Nc1ccc(NC(=O)c2ccnn2C)c(C)c1" measured_number=65.5
compound="CC[C@@]1(O)C(=O)OCc2c1cc1n(c2=O)Cc2cc3c(CN(C)C)c(O)ccc3nc2-1 + Cc1ccccc1N=Nc1ccc(NC(=O)c2ccnn2C)c(C)c1" measured_number=68.8
compound="NS(=O)(=O)OCC1CC(n2ccc3c(NC4CCc5ccccc54)ncnc32)CC1O (stereo unspecified) + CC(CO)NC(=O)c1cc(-c2ccc(Cl)cc2)nn(-c2cnn(C)c2)c1=O" measured_number=108
compound="O=C(c1cc(Cc2n[nH]c(=O)c3ccccc23)ccc1F)N1CCN(C(=O)C2CC2)CC1 + Cc1cncc(-c2nc(NCCc3c[nH]c4ccccc34)c3ncn(C(C)C)c3n2)c1" measured_number=119
compound="NS(=O)(=O)OCC1CC(n2ccc3c(NC4CCc5ccccc54)ncnc32)CC1O (stereo unspecified) + Cc1cncc(-c2nc(NCCc3c[nH]c4ccccc34)c3ncn(C(C)C)c3n2)c1" measured_number=112
compound="COc1cc(C2c3cc4c(cc3C(OC3OC5COC(C)OC5C(O)C3O)C3COC(=O)C23)OCO4)cc(OC)c1O (stereo unspecified) + CC(CO)NC(=O)c1cc(-c2ccc(Cl)cc2)nn(-c2cnn(C)c2)c1=O" measured_number=101
compound="CC1(C)CCC(CN2CCN(c3ccc(C(=O)NS(=O)(=O)c4ccc(NCC5CCOCC5)c([N+](=O)[O-])c4)c(Oc4cnc5[nH]ccc5c4)c3)CC2)=C(c2ccc(Cl)cc2)C1 + Cc1ccccc1N=Nc1ccc(NC(=O)c2ccnn2C)c(C)c1" measured_number=93.7
compound="CC[C@@]1(O)C(=O)OCc2c1cc1n(c2=O)Cc2cc3c(CN(C)C)c(O)ccc3nc2-1 + Cc1cncc(-c2nc(NCCc3c[nH]c4ccccc34)c3ncn(C(C)C)c3n2)c1" measured_number=80.7
compound="COc1ccc([C@@H](O)c2cc(-c3ncnc4cc(N5CCOCC5)ccc34)c(F)cc2Cl)nn1 + CC(CO)NC(=O)c1cc(-c2ccc(Cl)cc2)nn(-c2cnn(C)c2)c1=O" measured_number=95.1

* * *

system: 699152-130-R-J1-PDC complex spheroid growth; assay: Anticancer human tumor 699152-130-R-J1-PDC cell line growth inhibition [AhR]; settings: second compound 10 µM; first compound 0.01 µM; hits give low values;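 also: compound exposure lasted 7 days after spheroids had grown for 3 days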
QUANTITY KIND: viability, T/C (%)

molecule="Cn1ncnc1C1c2n[nH]c(=O)c3cc(F)cc(c23)NC1c1ccc(F)cc1 (stereo not drawn) + CC(CO)NC(=O)c1cc(-c2ccc(Cl)cc2)nn(-c2cnn(C)c2)c1=O" quantity_kind="viability, T/C" measured_number=85.5
molecule="CC1COCCN1c1cc(-c2ccnn2C)c2ccnc(-c3ccn[nH]3)c2n1 (stereo not drawn) + Cc1ccccc1N=Nc1ccc(NC(=O)c2ccnn2C)c(C)c1" quantity_kind="viability, T/C" measured_number=128
molecule="Cn1ncnc1C1c2n[nH]c(=O)c3cc(F)cc(c23)NC1c1ccc(F)cc1 (stereo not drawn) + Cc1cncc(-c2nc(NCCc3c[nH]c4ccccc34)c3ncn(C(C)C)c3n2)c1" quantity_kind="viability, T/C" measured_number=26.6

* * *

system: 699152-130-R-J1-PDC complex spheroid growth; experiment: Anticancer human tumor 699152-130-R-J1-PDC cell line growth inhibition [AhR]; details: second compound 10 µM; first compound 0.0316 µM; hits give low values;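 also: compound exposure lasted 7 days after spheroids had grown for 3 days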
QUANTITY KIND: viability, T/C (%)

compound="CC[C@@]1(O)C(=O)OCc2c1cc1n(c2=O)Cc2cc3c(CN(C)C)c(O)ccc3nc2-1 + CC(CO)NC(=O)c1cc(-c2ccc(Cl)cc2)nn(-c2cnn(C)c2)c1=O" target_under_test="699152-130-R-J1-PDC complex spheroid growth" measured_number=72.3
compound="CC[C@@]1(O)C(=O)OCc2c1cc1n(c2=O)Cc2cc3c(CN(C)C)c(O)ccc3nc2-1 + Cc1ccccc1N=Nc1ccc(NC(=O)c2ccnn2C)c(C)c1" target_under_test="699152-130-R-J1-PDC complex spheroid growth" measured_number=70
compound="CC(C)c1c(-c2ccccc2)nc2c(C#N)c[nH]n2c1=O + Cc1ccccc1N=Nc1ccc(NC(=O)c2ccnn2C)c(C)c1" target_under_test="699152-130-R-J1-PDC complex spheroid growth" measured_number=99.7

* * *

tested on: 699152-130-R-J1-PDC complex spheroid growth; test: Anticancer human tumor 699152-130-R-J1-PDC cell line growth inhibition [AhR]; details: second compound 0.316 µM; first compound 0.0949 µM; active means viability on the fitted dose curve at most 10% of control; inactive means the rest;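 also: compound exposure lasted 7 days after spheroids had grown for 3 days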
Classes used: Y = active, N = inactive

compound="O=C(C=Cn1cnc(-c2cc(C(F)(F)F)cc(C(F)(F)F)c2)n1)NNc1cnccn1 + CC(CO)NC(=O)c1cc(-c2ccc(Cl)cc2)nn(-c2cnn(C)c2)c1=O" target_under_test="699152-130-R-J1-PDC complex spheroid growth" assigned_class=N
compound="CCc1c2c(nc3ccc(O)cc13)-c1cc3c(c(=O)n1C2)COC(=O)[C@]3(O)CC + Cc1ccccc1N=Nc1ccc(NC(=O)c2ccnn2C)c(C)c1" target_under_test="699152-130-R-J1-PDC complex spheroid growth" assigned_class=N
compound="CC(C)CC(NC(=O)C(Cc1ccccc1)NC(=O)c1cnccn1)B(O)O (stereo not drawn) + CC(CO)NC(=O)c1cc(-c2ccc(Cl)cc2)nn(-c2cnn(C)c2)c1=O" target_under_test="699152-130-R-J1-PDC complex spheroid growth" assigned_class=Y

* * *

test system: 699152-130-R-J1-PDC complex spheroid growth; assay: Anticancer human tumor 699152-130-R-J1-PDC cell line growth inhibition [AhR]; conditions: second compound 3.16 µM; first compound 0.000949 µM; hits give low values;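 also: compound exposure lasted 7 days after spheroids had grown for 3 days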
One threshold, 80%, splits the recorded viability, T/C values: lower ones are Fulfilled, equal or higher ones are Not fulfilled.

compound="CCc1c2c(nc3ccc(O)cc13)-c1cc3c(c(=O)n1C2)COC(=O)[C@]3(O)CC + CC(CO)NC(=O)c1cc(-c2ccc(Cl)cc2)nn(-c2cnn(C)c2)c1=O" assigned_class=Fulfilled
compound="CCc1c2c(nc3ccc(O)cc13)-c1cc3c(c(=O)n1C2)COC(=O)[C@]3(O)CC + Cc1cncc(-c2nc(NCCc3c[nH]c4ccccc34)c3ncn(C(C)C)c3n2)c1" assigned_class=Fulfilled
compound="Nc1ncn(C2CC(O)C(CO)S2)c(=O)n1 (stereo unspecified) + Cc1cncc(-c2nc(NCCc3c[nH]c4ccccc34)c3ncn(C(C)C)c3n2)c1" assigned_class="Not fulfilled"
compound="Nc1ncn(C2CC(O)C(CO)S2)c(=O)n1 (stereo unspecified) + CC(CO)NC(=O)c1cc(-c2ccc(Cl)cc2)nn(-c2cnn(C)c2)c1=O" assigned_class="Not fulfilled"

* * *

test system: 699152-130-R-J1-PDC complex spheroid growth; assay: Anticancer human tumor 699152-130-R-J1-PDC cell line growth inhibition [AhR]; details: second compound 1 µM; first compound 0.01 µM; hits give low values;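 also: compound exposure lasted 7 days after spheroids had grown for 3 days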
QUANTITY KIND: viability, T/C (%)

compound="Nc1ncn(C2CC(O)C(CO)O2)c(=O)n1 (stereo unspecified) + Cc1cncc(-c2nc(NCCc3c[nH]c4ccccc34)c3ncn(C(C)C)c3n2)c1" target_under_test="699152-130-R-J1-PDC complex spheroid growth" measured_number=115
compound="CC[C@@]1(O)C(=O)OCc2c1cc1n(c2=O)Cc2cc3c(CN(C)C)c(O)ccc3nc2-1 + CC(CO)NC(=O)c1cc(-c2ccc(Cl)cc2)nn(-c2cnn(C)c2)c1=O" target_under_test="699152-130-R-J1-PDC complex spheroid growth" measured_number=79.4
compound="Cn1ncnc1C1c2n[nH]c(=O)c3cc(F)cc(c23)NC1c1ccc(F)cc1 (stereo unspecified) + Cc1ccccc1N=Nc1ccc(NC(=O)c2ccnn2C)c(C)c1" target_under_test="699152-130-R-J1-PDC complex spheroid growth" measured_number=98.4
compound="Nc1ncn(C2CC(O)C(CO)O2)c(=O)n1 (stereo unspecified) + Cc1ccccc1N=Nc1ccc(NC(=O)c2ccnn2C)c(C)c1" target_under_test="699152-130-R-J1-PDC complex spheroid growth" measured_number=95.6
compound="Cn1ncnc1C1c2n[nH]c(=O)c3cc(F)cc(c23)NC1c1ccc(F)cc1 (stereo unspecified) + Cc1cncc(-c2nc(NCCc3c[nH]c4ccccc34)c3ncn(C(C)C)c3n2)c1" target_under_test="699152-130-R-J1-PDC complex spheroid growth" measured_number=116
compound="CC[C@@]1(O)C(=O)OCc2c1cc1n(c2=O)Cc2cc3c(CN(C)C)c(O)ccc3nc2-1 + Cc1ccccc1N=Nc1ccc(NC(=O)c2ccnn2C)c(C)c1" target_under_test="699152-130-R-J1-PDC complex spheroid growth" measured_number=77.9
